Measured on: rat mGlu2 (Rattus norvegicus (Rat))
Assay comment: mGlu2 Ca2+ flux assay
Experimental context: Gα15 HEK293 cells stably expressing rat mGlu2; glutamate EC80; >10,000 = no plateau; >30,000 = no measurable activity
Description: Gα15 HEK293 cells stably expressing rat mGlu2 were plated in black-walled, clear-bottomed, poly-D-lysine coated 384-well plates in 20 μL of assay medium (DMEM containing 10% dialyzed FBS, 20 mM HEPES, and 1 mM sodium pyruvate) at a density of 12K cells/well. […] Ca^2+ flux was measured using the Functional Drug Screening System (FDSS7000, Hamamatsu, Japan). […] Calcium fluorescence measures were recorded as fold over basal fluorescence; raw data was then normalized to the maximal response to glutamate. […]
Value type: IC50 (nM)

N#Cc1cc(-c2ccc(F)cc2)c(OCc2ccncc2)cn1 [Compound 17] : 1580
NC(=O)c1cc(-c2ccc(F)cc2)c(OCc2ccccc2Br)cn1 [Compound 35] : 1110
N#Cc1cc(OCCOc2cnc(C(N)=O)cc2-c2ccc(F)cc2)ccc1F [Compound 154] : 1390

----------
Measured on: rat mGlu2 (Rattus norvegicus (Rat))
Assay comment: mGlu2 Ca2+ flux assay
Experimental context: Gα15 HEK293 cells stably expressing rat mGlu2; glutamate EC80; >10,000 = no plateau; >30,000 = no measurable activity
Value type: IC50 (nM)

# annotated cases, reported IC50 shown
CC(COc1cnc(C(N)=O)cc1-c1ccc(F)cc1)Oc1ccnc(C(F)(F)F)c1 (stereo not drawn) : 835
N#Cc1cc(COc2cnc(C(N)=O)cc2-c2ccc(F)cc2)ccc1F : 1680
C[C@@H]1CN(Cc2cnc(C(N)=O)cc2-c2ccc(F)cc2)C[C@H](C)O1 : 987
Cc1cc(OCCOc2cnc(C(N)=O)cc2-c2ccc(F)cc2)ccn1 : 410

P: Cc1cc(COc2cnc(C(N)=O)cc2-c2ccc(F)cc2)ccn1
Q: NC(=O)c1cc(-c2ccc(F)cc2)c(N2CC(Oc3cccnc3)C2)cn1
Inquiry: Given P and given Q , which shows the smaller recorded IC50? Pick one; state its label.
Reply text: P

1: NC(=O)c1cc(-c2ccc(F)cc2)c(OCc2ccncc2)cn1
2: NC(=O)c1cc(-c2ccc(F)cc2)c(OCCOc2cncc(F)c2)cn1
Inquiry: Given 1 and given 2 , which shows the smaller recorded IC50? Pick one; state its label.
Reply text: 1

----------
Measured on: rat mGlu2 (Rattus norvegicus (Rat), UniProt P31421)
Sequence (P31421 19-872): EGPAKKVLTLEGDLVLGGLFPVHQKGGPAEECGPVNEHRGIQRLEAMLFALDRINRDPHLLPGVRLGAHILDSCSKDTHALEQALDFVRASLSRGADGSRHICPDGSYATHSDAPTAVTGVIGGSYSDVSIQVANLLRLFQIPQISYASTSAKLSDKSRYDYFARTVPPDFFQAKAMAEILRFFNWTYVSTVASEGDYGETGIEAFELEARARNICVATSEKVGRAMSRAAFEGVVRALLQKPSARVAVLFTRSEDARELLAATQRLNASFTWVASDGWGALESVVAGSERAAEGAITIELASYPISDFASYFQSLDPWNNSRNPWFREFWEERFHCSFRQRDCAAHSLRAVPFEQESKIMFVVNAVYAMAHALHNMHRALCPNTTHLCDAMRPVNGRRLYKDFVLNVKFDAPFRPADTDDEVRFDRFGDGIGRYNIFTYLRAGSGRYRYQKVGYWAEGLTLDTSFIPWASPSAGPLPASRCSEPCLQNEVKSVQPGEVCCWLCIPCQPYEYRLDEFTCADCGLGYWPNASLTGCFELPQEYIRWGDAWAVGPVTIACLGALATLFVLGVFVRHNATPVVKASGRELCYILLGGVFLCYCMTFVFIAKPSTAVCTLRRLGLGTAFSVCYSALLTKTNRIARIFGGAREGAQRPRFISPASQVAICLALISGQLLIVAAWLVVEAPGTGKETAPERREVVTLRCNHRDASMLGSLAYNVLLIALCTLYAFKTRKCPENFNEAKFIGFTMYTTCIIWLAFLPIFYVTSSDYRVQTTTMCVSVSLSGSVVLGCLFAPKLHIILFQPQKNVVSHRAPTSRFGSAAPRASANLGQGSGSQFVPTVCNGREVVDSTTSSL
Assay comment: mGlu2 Ca2+ flux assay
Format: cell-based
Experimental context: amplitude of response in the presence of 30 μM test compound as percentage of maximal response to glutamate; read-out: rat mGlu2 Glu max
Value type: remaining activity at 30 µM (%)

# annotated cases, reported remaining activity at 30 µM shown
N#Cc1cc(-c2ccc(F)cc2)c(OCCCOc2cccnc2)cn1 : 68.8
NC(=O)c1cc(-c2ccc(F)cc2)c(OCCCOc2ccnc(C(F)(F)F)c2)cn1 : 2.03
COc1ccc(-c2cc(C(N)=O)ncc2OCc2ccc(C(F)(F)F)nc2)c(F)c1 : 1.16
NC(=O)c1cc(-c2ccc(F)cc2)c(N2CCC(Oc3cccnc3)CC2)cn1 : 29.8
CC(COc1cnc(C(N)=O)cc1-c1ccc(F)cc1)Oc1ccnc(C(F)(F)F)c1 (stereo not drawn) : 0.75
NC(=O)c1cc(-c2ccc(F)cc2)c(OCCCN2CCC(F)(F)CC2)cn1 : 7.38
NC(=O)c1cc(-c2ccc(F)cc2)c(OCCOc2ccc(C(F)(F)F)nc2)cn1 : 3.64
NC(=O)c1cc(-c2ccc(F)cc2)c(OCCN2CCOCC2)cn1 : 49
Cc1ccc(OC(C)COc2cnc(C(N)=O)cc2-c2ccc(F)cc2)cn1 (stereo not drawn) : 1.66
NC(=O)c1cc(-c2ccc(F)cc2)c(OCCOCc2ccccc2)cn1 : 9.91

1: CC(Oc1cnc(C#N)cc1-c1ccc(F)cc1)c1ccncc1 (stereo not drawn)
2: NC(=O)c1cc(-c2ccc(F)cc2)c(COc2ccc(C(F)(F)F)nc2)cn1
3: NC(=O)c1cc(-c2ccc(F)cc2)c(OCCOc2cncc(Br)c2)cn1
4: N#Cc1cc(-c2ccc(F)cc2)c(OCc2ccc3nccn3c2)cn1
Inquiry: List from greatest to least remaining activity at 30 µM. List the labels, following the order given in the request.
Reply text: 1, 4, 3, 2

a: NC(=O)c1cc(-c2ccc(F)cc2)c(OCc2cncs2)cn1
b: Cc1cc(COc2cnc(C(N)=O)cc2-c2cnn(C)c2)ccn1
Inquiry: Given a and given b , which shows the smaller recorded remaining activity at 30 µM? Pick one; state its label.
Reply text: a

1: N#Cc1cccc(COc2cnc(C#N)cc2-c2ccc(F)cc2)c1
2: CC(CNc1cnc(C(N)=O)cc1-c1ccc(F)cc1)N1CCOCC1 (stereo not drawn)
3: NC(=O)c1cc(-c2ccc(F)cc2)c(COc2ccnc(C(F)(F)F)c2)cn1
4: N#Cc1cc(OCCOc2cnc(C(N)=O)cc2-c2ccc(F)cc2)ccc1F
5: NC(=O)c1cc(-c2ccc(F)cc2)c(OCc2cc(F)cc(F)c2)cn1
Inquiry: List from greatest to least remaining activity at 30 µM. List the labels, following the order given in the request.
Reply text: 1, 5, 4, 2, 3
(1: 29.9%, 5: 18.7%, 4: 4.19%, 2: 1.19%, 3: 0.38%)

----------
Measured on: rat mGlu2 (Rattus norvegicus (Rat))
Assay comment: mGlu2 Ca2+ flux assay
Assay type: cell-based
Experimental context: amplitude of response in the presence of 30 μM test compound as percentage of maximal response to glutamate; read-out: rat mGlu2 Glu max
Experimental: Gα15 HEK293 cells stably expressing rat mGlu2 were plated in black-walled, clear-bottomed, poly-D-lysine coated 384-well plates in 20 μL of assay medium (DMEM containing 10% dialyzed FBS, 20 mM HEPES, and 1 mM sodium pyruvate) at a density of 12K cells/well. […] Ca^2+ flux was measured using the Functional Drug Screening System (FDSS7000, Hamamatsu, Japan). […] Calcium fluorescence measures were recorded as fold over basal fluorescence; raw data was then normalized to the maximal response to glutamate. […]
Value type: remaining activity at 30 µM (%)

# annotated cases, reported remaining activity at 30 µM shown
COc1ccc(COc2cnc(C(N)=O)cc2-c2ccc(F)cc2)cn1 : 2.2
CC(COc1ccnc(C(F)(F)F)c1)Oc1cnc(C(N)=O)cc1-c1ccc(F)cc1 (stereo not drawn) : 1.72
Cc1ccc(OCc2cnc(C(N)=O)cc2-c2ccc(F)cc2)cn1 : -2.16
COc1ccc(-c2cc(C(N)=O)ncc2OCc2cc(F)cc(F)c2)c(F)c1 : 1.46
CN(CCN1CCOCC1)c1cnc(C#N)cc1-c1ccc(F)cc1 : 52.4

I: Cn1ccc(COc2cnc(C(N)=O)cc2-c2ccc(F)cc2)n1
II: NC(=O)c1cc(-c2ccc(F)cc2)c(OCCOc2ccccc2F)cn1
III: NC(=O)c1cc(-c2ccc(F)cc2)c(COc2cc(F)cc(F)c2)cn1
Inquiry: List from greatest to least remaining activity at 30 µM. List the labels, following the order given in the request.
Reply text: II, I, III
(II: 2.16%, I: 0.93%, III: 0.21%)

----------
Measured on: rat mGlu2 (Rattus norvegicus (Rat))
Assay comment: mGlu2 Ca2+ flux assay
Type: cell-based
Experimental context: amplitude of response in the presence of 30 μM test compound as percentage of maximal response to glutamate
Value type: rat mGlu2 Glu max (%)

# annotated cases, reported rat mGlu2 Glu max shown
Cn1cc(-c2cc(C(N)=O)ncc2OCc2ccc(C(F)(F)F)nc2)cn1 [Compound 87] : 29.69
Cc1ccc(OCCCOc2cnc(C(N)=O)cc2-c2ccc(F)cc2)cn1 [Compound 129] : 2.91
Cc1ccc(OC2CCN(c3cnc(C(N)=O)cc3-c3ccc(F)cc3)CC2)cn1 [Compound 139] : 7.04
N#Cc1cncc(COc2cnc(C(N)=O)cc2-c2ccc(F)cc2)c1 [Compound 151] : 2.05
NC(=O)c1cc(-c2ccc(F)cc2)c(OCCOc2cncc(F)c2)cn1 [Compound 112] : 0.05

P: Cc1ccc(OCCOc2cnc(C(N)=O)cc2-c2ccc(F)cc2)cn1 [Compound 114]
Q: NC(=O)c1cc(-c2ccc(F)cc2)c(OCCCOc2ccc(C(F)(F)F)nc2)cn1 [Compound 126]
Inquiry: Parameter check: reported rat mGlu2 Glu max is higher for which label, P or Q ? Pick one; state its label.
Reply text: Q

----------
Measured on: rat mGlu2 (Rattus norvegicus (Rat), UniProt P31421)
Assay comment: mGlu2 Ca2+ flux assay
Type: cell-based
Experimental context: amplitude of response in the presence of 30 μM test compound as percentage of maximal response to glutamate; read-out: rat mGlu2 Glu max
Value type: remaining activity at 30 µM (%)

Cc1ccc(COc2cnc(C(N)=O)cc2-c2ccc(F)cc2)cn1 [Compound 41] : 1.59
NC(=O)c1cc(-c2ccc(F)cc2)c(OCCOc2cc(Br)ccc2F)cn1 [Compound 101] : 1.85
Cc1ccc(OC2CN(c3cnc(C(N)=O)cc3-c3ccc(F)cc3)C2)cn1 [Compound 142] : 2.35

a: Cn1cc(-c2cc(C(N)=O)ncc2OCc2cc(F)cc(F)c2)cn1 [Compound 80]
b: Cc1cc(OCCOc2cnc(C(N)=O)cc2-c2ccc(F)cc2)ccn1 [Compound 118]
c: N#Cc1cc(-c2ccc(F)cc2)c(OCc2cccnc2)cn1 [Compound 10]
Inquiry: List from greatest to least remaining activity at 30 µM. List the labels, following the order given in the request.
Reply text: c, b, a
(c: 37%, b: 1.16%, a: -0.09%)

A: NC(=O)c1cc(-c2ccc(F)cc2)c(OCc2cc(Br)ccc2F)cn1 [Compound 36]
B: N#Cc1cc(-c2ccc(F)cc2)c(OCCCN2CCC(F)(F)CC2)cn1 [Compound 74]
Inquiry: Given A and given B , which shows the smaller recorded remaining activity at 30 µM? Pick one; state its label.
Reply text: A
